Entry source: patent EP0726760B1

# experimentalDetails: Acute toxicity after intraperitoneal injection, 30 days
# Parameters: species or system souris BALB/c
# setupConditions: mouse, in vivo, ip, BA 3 % in water for injection, printed 1:10 (0.5), i.p.; read-out: % de survivants après 30 jours
# Experimental: La toxicité aiguë des formulations décrites dans les exemples II - IV, a été examinée sur des souris BALB/c pendant 30 jours. 0.5 ml de chacun des SEOF dilué au 10ème (plus que 300 fois constitue un surdosage) et au 100ème (plus que 30 fois constitue un surdosage) ont été injectés intrapéritonalement au groupe de 4-6 souris. L'état de l'animal a été surveillé pendant plusieurs heures après le processus et ensuite chaque jour, pandant un mois.
quantityName: survival at 720 h (%)
Express the result in % but write the number alone.

I have this molecule here, OCc1ccccc1 , and I need its recorded survival at 720 h.
15
